Entry source: patent US7413895B2

molecular target: human amino acid transporter LAT1 (Homo sapiens); experiment: Incorporation of 14C-labeled amino acids into oocytes co-expressing human LAT1 and human 4F2hc; type: cell-based; set-up: expressed in transfected cells; conditions: oocytes co-expressing human LAT1 and human 4F2hc; 14C-labeled substrate 50 μM, 30 minutes
assay metric: incorporation of 14C-labeled amino acid into oocytes

CC(C)C[C@@H](N)C(=O)O [D-leucine] : incorporated
N[C@H](Cc1ccccc1)C(=O)O [D-phenylalanine] : incorporated

---

target: human amino acid transporter LAT1 (Homo sapiens, UniProt Q01650); assay: Competitive antagonism test: incorporation of 14C-labeled leucine or phenylalanine into oocytes co-expressing human LAT1 and human 4F2hc in the presence of test substance; format: cell-based; design: expressed in transfected cells; details: 14C-labeled leucine 20 μM, test substance 2 mM, 30 minutes, choline chloride uptake solution
Sequence (Q01650 whole entry): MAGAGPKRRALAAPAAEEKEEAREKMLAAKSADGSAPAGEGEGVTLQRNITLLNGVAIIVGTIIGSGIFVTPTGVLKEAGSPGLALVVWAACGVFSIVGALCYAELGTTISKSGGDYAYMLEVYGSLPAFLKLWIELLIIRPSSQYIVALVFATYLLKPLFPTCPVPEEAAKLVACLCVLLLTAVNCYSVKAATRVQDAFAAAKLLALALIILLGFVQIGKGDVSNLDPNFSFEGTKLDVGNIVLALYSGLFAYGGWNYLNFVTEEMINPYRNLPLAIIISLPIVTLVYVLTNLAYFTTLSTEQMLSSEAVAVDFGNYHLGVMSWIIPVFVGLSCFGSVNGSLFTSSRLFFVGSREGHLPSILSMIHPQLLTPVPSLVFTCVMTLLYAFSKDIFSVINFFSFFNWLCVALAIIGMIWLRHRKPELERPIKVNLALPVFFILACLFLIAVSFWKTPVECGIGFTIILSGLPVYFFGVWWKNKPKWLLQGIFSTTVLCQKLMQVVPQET
Sequence (as listed by the source partner): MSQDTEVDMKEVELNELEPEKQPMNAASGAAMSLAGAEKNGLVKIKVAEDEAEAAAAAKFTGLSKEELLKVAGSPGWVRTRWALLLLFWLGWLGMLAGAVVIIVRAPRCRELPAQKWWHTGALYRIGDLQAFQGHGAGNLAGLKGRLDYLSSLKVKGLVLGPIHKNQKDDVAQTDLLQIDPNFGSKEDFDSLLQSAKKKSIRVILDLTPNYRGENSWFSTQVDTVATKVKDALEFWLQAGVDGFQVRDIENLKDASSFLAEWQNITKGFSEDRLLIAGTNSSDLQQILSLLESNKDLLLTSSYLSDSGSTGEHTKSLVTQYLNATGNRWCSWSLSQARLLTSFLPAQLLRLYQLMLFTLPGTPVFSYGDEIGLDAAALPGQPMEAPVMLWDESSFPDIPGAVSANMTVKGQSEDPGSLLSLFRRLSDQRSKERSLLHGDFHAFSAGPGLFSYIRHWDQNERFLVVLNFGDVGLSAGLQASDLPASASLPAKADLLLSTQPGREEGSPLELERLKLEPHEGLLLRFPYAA
assay metric: inhibition of incorporation of 14C-labeled leucine mediated by the human LAT1

N[C@@H](CC(=O)O)C(=O)O : not affected at all
CC[C@H](C)[C@H](N)C(=O)O : strongly inhibited
N[C@@H](Cc1ccccc1)C(=O)O : strongly inhibited
NCCCC[C@H](N)C(=O)O : not affected at all

// map N[C@@H](Cc1ccc(O)cc1)C(=O)O to recorded inhibition of incorporation of 14C-labeled leucine mediated by the human LAT1 (system: human amino acid transporter LAT1 (Homo sapiens, UniProt Q01650))
strongly inhibited

Find the measured inhibition of incorporation of 14C-labeled leucine mediated by the human LAT1: item N=C(N)NCCC[C@H](N)C(=O)O , target or system human amino acid transporter LAT1 (Homo sapiens, UniProt Q01650).
not affected at all

Find the measured inhibition of incorporation of 14C-labeled leucine mediated by the human LAT1: item CC(C)[C@H](N)C(=O)O , target or system human amino acid transporter LAT1 (Homo sapiens, UniProt Q01650).
strongly inhibited

Record N[C@@H](Cc1c[nH]cn1)C(=O)O : what is its inhibition of incorporation of 14C-labeled leucine mediated by the human LAT1 with human amino acid transporter LAT1 (Homo sapiens, UniProt Q01650)?
strongly inhibited
